# Tested on: LU99 MTAP(-/-)deleted cells
# experimentalProtocol: Inhibitory activity on proliferation of LU99 MTAP(-/-)deleted cells (Cell-Titer Glo)
# Format: cell-based
# studyConditions: Homo sapiens, Lu-99, 144 h, incubated 6 d, 0-1,000 nM
propertyName: log10 of IC50 (log10 of the value in nM)

# compound, log10 of IC50
data = [
    ("CN(C(=O)c1ccc2nc(N)c3nsnc3c2c1)C1COC2(CCC2)c2cc(C(F)(F)F)ccc21 (stereo not shown)", 3.50),
    ("CN(C(=O)c1cc2c(cc1F)nc(N)c1cnn(C)c12)C1COC(C)(C)c2cc(Br)ccc21 (stereo not shown)", 1.28),
    ("CN(C(=O)c1cc2c(cn1)nc(N)c1cnn(C)c12)C1COC(C)(C)c2cc(C(F)(F)F)ncc21 (stereo not shown)", 1.62),
    ("CN(C(=O)c1ccc2nc(N)c3cnn(C)c3c2c1)[C@@H]1COC(C)(C)c2cc(C3CCOCC3)ccc21", 0.74),
    ("CN(C(=O)c1ccc2nc(N)c3cnn(C)c3c2c1)[C@@H]1COC(C)(C)c2cc(-c3cnn(C(F)(F)F)c3)ccc21", 0.83),
    ("CN(C(=O)c1ccc2nc(N)c3cnccc3c2c1)[C@@H]1COC(C)(C)c2cc(C(F)(F)F)ccc21", 1.56),
    ("CN(C(=O)c1cc2c3c(c(N)nc2cn1)COC3)C1COC(C)(C)c2cc(C(F)(F)F)ccc21 (stereo not shown)", 1.57),
    ("CN1CCN(c2ccc3c(c2)C(C)(C)OCC3N(C)C(=O)c2ccc3nc(N)c4cnn(C)c4c3c2)CC1 (stereo not shown)", 1.23),
    ("CN(C(=O)c1ccc2nc(N)c3cnn(C)c3c2c1)[C@@H]1COC2(CCC2)c2cc(C(F)(F)F)ncc21", 1.00),
    ("CN(C(=O)c1ccc2nc(N)c3cnn(C)c3c2c1)[C@@H]1COC(C)(C)c2cc(N3CC4CCC(C3)O4)ccc21", 0.85),
    ("CN(C(=O)c1cc2c(cc1Cl)nc(N)c1cnn(C)c12)C1COC(C)(C)c2cc(C(F)(F)F)ccc21 (stereo not shown)", 1.21),
    ("CN(C(=O)c1ccc2nc(N)c3cnn(C)c3c2c1)[C@@H]1COC(C)(C)c2cc(N3CCNCC3)ccc21", 2.01),
    ("CC1OCc2c1c(N)nc1cnc(C(=O)N(C)C3COC(C)(C)c4cc(C(F)(F)F)ccc43)cc21 (stereo not shown)", 1.80),
    ("CN(C(=O)c1cc2c(cn1)nc(N)c1cnn(C)c12)[C@@H]1COC(C)(C)c2cc(C(F)(F)F)ccc21", 1.03),
    ("CN(C(=O)c1ccc2nc(N)c3cnn(C)c3c2c1)C1COC2(CCC2)c2cc(C(F)(F)F)ccc21 (stereo not shown)", 1.04),
    ("CN(C(=O)c1ccc2nc(N)c3c(c2c1)COC3)C1COC(C)(C)c2cc(C(F)(F)F)ccc21 (stereo not shown)", 1.40),
    ("CN(C(=O)c1ccc2nc(N)c3cnn(C)c3c2c1)[C@@H]1COC(C)(C)c2cc(-c3cscn3)ccc21", 0.79),
    ("CN(C(=O)c1ccc2nc(N)c3cnn(C)c3c2c1)C1COC(C)(C)c2nc(C(F)(F)F)ccc21 (stereo not shown)", 0.92),
    ("CN(C(=O)c1ccc2nc(N)c3cnn(C)c3c2c1)C1COC(C)(C)c2cc(-c3cnn(C)c3)ccc21 (stereo not shown)", 0.56),
    ("CN(C(=O)c1cc2c3c(c(N)nc2cn1)COC3)[C@H]1COC(C)(C)c2cc(C(F)(F)F)ccc21", 2.70),
    ("CN(C(=O)c1cc2c3c(c(N)nc2cn1)COC3)[C@H]1COC2(CCC2)c2cc(C(F)(F)F)ccc21", 2.97),
    ("CN(C(=O)c1ccc2nc(N)c3c(c2c1)CCO3)C1COC(C)(C)c2cc(C(F)(F)F)ccc21 (stereo not shown)", 3.35),
]
